target: human CD33 S326A (human, UniProt P20138 18-364); assay: flow cytometry, alanine scan
Sequence (P20138 18-364 S326A limits assumed): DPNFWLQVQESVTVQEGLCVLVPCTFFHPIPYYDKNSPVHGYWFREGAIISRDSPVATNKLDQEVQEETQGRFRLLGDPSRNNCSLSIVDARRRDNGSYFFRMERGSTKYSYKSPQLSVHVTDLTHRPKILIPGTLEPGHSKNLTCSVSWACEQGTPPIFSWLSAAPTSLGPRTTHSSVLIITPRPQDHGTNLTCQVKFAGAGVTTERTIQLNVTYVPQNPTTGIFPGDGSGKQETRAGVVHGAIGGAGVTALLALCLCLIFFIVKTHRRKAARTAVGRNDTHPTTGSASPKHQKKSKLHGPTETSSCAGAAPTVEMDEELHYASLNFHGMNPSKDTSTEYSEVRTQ
measurement-type: Mean % WT Binding

Example entries and their recorded answers appear below.
binder	Mean % WT Binding
Refmab #2 (antibody, V domains shown, The alanine scan used IgG or Fab) VH: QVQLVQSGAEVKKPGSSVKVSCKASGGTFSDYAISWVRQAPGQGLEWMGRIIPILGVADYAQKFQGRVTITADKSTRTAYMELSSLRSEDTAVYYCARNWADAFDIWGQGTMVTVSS VL: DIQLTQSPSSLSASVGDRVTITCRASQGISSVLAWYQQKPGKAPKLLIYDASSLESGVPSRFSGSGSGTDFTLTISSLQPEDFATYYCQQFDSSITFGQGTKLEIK	109 % of WT
Refmab #4 (antibody, V domains shown, The alanine scan used IgG or Fab) VH: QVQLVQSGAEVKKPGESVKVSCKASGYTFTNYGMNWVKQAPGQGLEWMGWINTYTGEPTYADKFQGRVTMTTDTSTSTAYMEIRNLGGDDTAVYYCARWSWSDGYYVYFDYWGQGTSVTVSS VL: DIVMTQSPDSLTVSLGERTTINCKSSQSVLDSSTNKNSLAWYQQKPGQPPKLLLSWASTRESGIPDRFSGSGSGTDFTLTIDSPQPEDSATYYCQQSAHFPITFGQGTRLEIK	65.8 % of WT
Refmab #1 (antibody, V domains shown, The alanine scan used IgG or Fab; also called hP67.6) VH: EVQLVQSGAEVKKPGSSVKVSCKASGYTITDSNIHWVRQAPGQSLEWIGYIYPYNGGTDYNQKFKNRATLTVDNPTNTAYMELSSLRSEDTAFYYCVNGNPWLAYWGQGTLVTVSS VL: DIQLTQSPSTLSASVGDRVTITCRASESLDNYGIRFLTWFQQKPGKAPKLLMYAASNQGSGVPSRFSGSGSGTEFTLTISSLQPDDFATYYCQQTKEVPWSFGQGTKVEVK	85.6 % of WT

In the following, a different binder is considered.
Input: Return reported Mean % WT Binding; argument: Refmab #3 (antibody, V domains shown, The alanine scan used IgG or Fab) VH: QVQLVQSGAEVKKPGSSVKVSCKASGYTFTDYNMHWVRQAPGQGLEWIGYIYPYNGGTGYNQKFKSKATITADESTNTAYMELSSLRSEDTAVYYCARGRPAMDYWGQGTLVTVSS VL: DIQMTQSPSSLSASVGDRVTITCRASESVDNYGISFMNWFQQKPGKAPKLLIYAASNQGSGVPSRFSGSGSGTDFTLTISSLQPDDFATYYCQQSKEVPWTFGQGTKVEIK
Output: 129 % of WT

Attribution: patent US20260242735A1
